Test system: NCI-H3122
Experiment: Antiproliferative activity against human NCI-H3122 cells assessed as reduction in cell viability measured after 72 hrs by MTT assay
Details: NCI-H3122, 72 h
value_kind: pIC50
# pIC50 = -log10(concentration in molar units)

Some compounds with recorded pIC50:
According to the records, this compound Cc1cc(Nc2ncc(Cl)c(Nc3ccccc3S(=O)(=O)C(C)C)n2)c(OC(C)C)cc1C1CCN(CCC(=O)NCCOCCOCCNCC(=O)Nc2cccc3c2C(=O)N(C2CCC(=O)NC2=O)C3=O)CC1 (stereo not drawn) displays pIC50 of 5.63

According to the records, this compound Cc1cc(Nc2ncc(Cl)c(Nc3ccccc3S(=O)(=O)C(C)C)n2)c(OC(C)C)cc1C1CCN(CCC(=O)NCCOCCNCC(=O)Nc2cccc3c2C(=O)N(C2CCC(=O)NC2=O)C3=O)CC1 (stereo not drawn) displays pIC50 of 5.74

Kindly consider the entry below.
According to the records, this compound Cc1cc(Nc2ncc(Cl)c(Nc3ccccc3S(=O)(=O)C(C)C)n2)c(OC(C)C)cc1C1CCN(CCC(=O)NCCCCCCCCNCC(=O)Nc2cccc3c2C(=O)N(C2CCC(=O)NC2=O)C3=O)CC1 (stereo not drawn) displays pIC50 of 5.58

----------
Test system: A549
Assay: Antiproliferative activity against human A549 cells assessed as reduction in cell viability measured after 72 hrs by MTT assay
Conditions: A549, 72 h
Parameter IC50: see the listing below.
Write the number in µM without appending the unit.

Some molecules with recorded IC50:
According to the records, this molecule Cc1cc(Nc2ncc(Cl)c(Nc3ccccc3S(=O)(=O)C(C)C)n2)c(OC(C)C)cc1C1CCN(CCC(=O)NCCCCCCNCC(=O)Nc2cccc3c2C(=O)N(C2CCC(=O)NC2=O)C3=O)CC1 (stereo not given) displays IC50 of 5.13

According to the records, this molecule Cc1cc(Nc2ncc(Cl)c(Nc3ccccc3S(=O)(=O)C(C)C)n2)c(OC(C)C)cc1C1CCN(CCC(=O)NCCCCNCC(=O)Nc2cccc3c2C(=O)N(C2CCC(=O)NC2=O)C3=O)CC1 (stereo not given) displays IC50 of 13.4

According to the records, this molecule Cc1cc(Nc2ncc(Cl)c(Nc3ccccc3S(=O)(=O)C(C)C)n2)c(OC(C)C)cc1C1CCN(CCC(=O)NCCOCCOCCNc2cccc3c2C(=O)N(C2CCC(=O)NC2=O)C3=O)CC1 (stereo not given) displays IC50 of 2.6

Next:
According to the records, this molecule Cc1cc(Nc2ncc(Cl)c(Nc3ccccc3S(=O)(=O)C(C)C)n2)c(OC(C)C)cc1C1CCN(CCC(=O)NCCOCCNCCC(=O)Nc2cccc3c2C(=O)N(C2CCC(=O)NC2=O)C3=O)CC1 (stereo not given) displays IC50 of 10.9

According to the records, this molecule Cc1cc(Nc2ncc(Cl)c(Nc3ccccc3S(=O)(=O)C(C)C)n2)c(OC(C)C)cc1C1CCN(CCC(=O)NCCOCCOCCNCC(=O)Nc2cccc3c2C(=O)N(C2CCC(=O)NC2=O)C3=O)CC1 (stereo not given) displays IC50 of 5.81

----------
Tested on: NCI-H2228
Assay: Antiproliferative activity against human NCI-H2228 cells assessed as reduction in cell viability measured after 72 hrs by MTT assay
Settings: NCI-H2228, 72 h
value_kind: IC50 (µM)
Write the number in µM without appending the unit.

Some compounds with recorded IC50:
IC50 for NCI-H2228 with input Cc1cc(Nc2ncc(Cl)c(Nc3ccccc3S(=O)(=O)C(C)C)n2)c(OC(C)C)cc1C1CCN(CCC(=O)NCCOCCNCC(=O)Nc2cccc3c2C(=O)N(C2CCC(=O)NC2=O)C3=O)CC1 (stereo not given) equals 5.74

IC50 for NCI-H2228 with input Cc1cc(Nc2ncc(Cl)c(Nc3ccccc3S(=O)(=O)C(C)C)n2)c(OC(C)C)cc1C1CCN(CCC(=O)NCCCCCCCCNCC(=O)Nc2cccc3c2C(=O)N(C2CCC(=O)NC2=O)C3=O)CC1 (stereo not given) equals 15.1

IC50 for NCI-H2228 with input Cc1cc(Nc2ncc(Cl)c(Nc3ccccc3S(=O)(=O)C(C)C)n2)c(OC(C)C)cc1C1CCN(CCC(=O)NCCCCCCNCC(=O)Nc2cccc3c2C(=O)N(C2CCC(=O)NC2=O)C3=O)CC1 (stereo not given) equals 3.1

Kindly consider the entry below.
IC50 for NCI-H2228 with input Cc1cc(Nc2ncc(Cl)c(Nc3ccccc3S(=O)(=O)C(C)C)n2)c(OC(C)C)cc1C1CCN(CCC(=O)NCCCCNCC(=O)Nc2cccc3c2C(=O)N(C2CCC(=O)NC2=O)C3=O)CC1 (stereo not given) equals 8.7
